- TARGET UNDER TEST: UniProt P03956
- Sequence (P03956 100-469): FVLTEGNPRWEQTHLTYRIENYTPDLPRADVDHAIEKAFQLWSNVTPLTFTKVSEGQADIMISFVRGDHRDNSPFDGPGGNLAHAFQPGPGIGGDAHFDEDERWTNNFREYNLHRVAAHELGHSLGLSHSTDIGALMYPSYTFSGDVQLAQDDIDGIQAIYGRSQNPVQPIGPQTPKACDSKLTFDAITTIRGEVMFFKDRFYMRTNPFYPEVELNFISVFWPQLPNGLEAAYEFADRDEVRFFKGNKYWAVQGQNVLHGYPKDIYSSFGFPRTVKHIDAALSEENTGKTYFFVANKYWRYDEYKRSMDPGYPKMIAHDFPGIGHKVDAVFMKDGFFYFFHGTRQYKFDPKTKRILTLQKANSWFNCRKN
ENDPOINT NAME: IC50

Param item: CNC(=O)[C@H](Cc1ccc(OCC(=O)N[C@@H]2O[C@H](CO)[C@@H](O)[C@H](O)[C@H]2NC(C)=O)cc1)NC(=O)[C@@H](CC(=O)NO)CC(C)C [Example 3] ; param system: UniProt P03956; output IC50: 20 nM
